Attribution: patent US20140148482A1

Test system: c-jun mRNA in Huh-7 cells
Assay: c-jun mRNA induction in Huh-7 cells, quantitative RT-PCR
Format: cell-based, human
Conditions: 10 μM, 24 hours, reference control group = 100%
Experimental: Huh-7 cells, were added with 10 μM of the candidate compound and co-cultured under the same conditions for 24 hours. Sorafenib (10 μM) is used as a positive control group, and Huh-7 cells without compound treatment is used as the reference control group. mRNA levels were assessed through quantitative RT-PCR. […]
reported_metric: c-Jun relative gene expression, Mean

>>> print(df.to_string())
                                   compound                       reported_metric  meas_value
0  N#Cc1ccc(Oc2ccc3cccc(NC(=O)Nc4ccc(Cl)c(C(F)(F)F)c4)c3c2)cc1  c-Jun relative gene expression, Mean     552.00%
1  Cc1cc(Oc2ccnc3c([N+](=O)[O-])cccc23)ccc1NC(=O)c1cc(C(F)(F)F)cc(C(F)(F)F)c1  c-Jun relative gene expression, Mean     515.47%
2  N#Cc1ccc(Oc2ccc(NC(=O)Nc3ccc(Cl)c(C(F)(F)F)c3)cc2)cc1  c-Jun relative gene expression, Mean     343.08%
3  Cc1cc(Oc2ccnc3c(N)cccc23)ccc1NC(=O)c1cc(C(F)(F)F)cc(C(F)(F)F)c1  c-Jun relative gene expression, Mean      77.51%
4  CNC(=O)c1cc(Oc2ccc(NC(=O)Nc3ccc(Cl)c(C(F)(F)F)c3)cc2)ccn1 [sorafenib, Sorafenib, reference compound]  c-Jun relative gene expression, Mean     447.28%
5  CC(=O)Nc1cccc2c(Oc3ccc(NC(=O)c4cc(C(F)(F)F)cc(C(F)(F)F)c4)c(C)c3)ccnc12  c-Jun relative gene expression, Mean     183.54%
